Assay: melting temperature; fluorescence melt of hairpins on a sequencing array, two-state fit, raised by 9.35 °C to match UV melts
Settings: sodium 0.088 M
measured-parameter: Tm

Which value of Tm has been reported for GTGTGCGGAAACGTACGC (.((.((....)).)).) in the records?
48 °C

Recorded Tm for GTTATAGCGAAAGCTAAC (((..(((....)))))) , please?
29.9 °C

New cases:
What value of measured Tm is listed for GTGTACTCGAAAGAGCAC (((..(((....)))))) ?
43.5 °C

* * *

Assay: melting temperature; fluorescence melt of hairpins on a sequencing array, two-state fit, raised by 9.35 °C to match UV melts
Conditions: sodium 0.088 M
measured-parameter: Tm (°C)
Write it as a number; the unit °C goes unstated.

What Tm value was documented for this sequence, GAACAACGAAAGTTCTTC (((.(((....))).))) ?
38.7

Next:
Need Tm, item GCCCCGCGAAAGCCAGGC (((..((....))..)))
44.8

Entry GATTTGGGAAACCAAACC (.(((((....))))).) : reported Tm = ?
34

What Tm value was documented for this sequence, GCGATATATCGC ((((....)))) ?
55.6

Would you kindly share the measured Tm for GGCATCGAAAGATGGGCC ((((((....)))..))) ?
46.8

Data request, read-out Tm, for GTAGAAGGAAACTTCTAC (((((((....)))))))
51.4

Give its Tm value. Item: GCACGGCGAAAGCGTTGC (((..((....))..)))
49.3

Tm for GCTTTCCGAAAGGAAGC (((.(((....)))))) ?
52.3

May I ask what Tm has been recorded for GGAAATCGAAAGATTCC (((.(((....)))))) ?
40.4

# query: Tm of entry GCTGGGCGAAAGCCAAGC (((.(((....))).)))
66.8

Look up Tm for this sequence: GCATCGCGAAAGCAAGGC ((.(.((....)).).))
39.6

# query: Tm of entry GGTGAGCGAAAGCTTACC (((.(((....))).)))
59.3

Which Tm value is on record for GATCTCACTGGAGATC ((((((....)))))) ?
51.3

Any idea what its Tm is? The sequence is GTTGCTACGAAAGTAAAC (((..(((....))))))
28.6

Find the recorded Tm belonging to GCCTAACGAAAGTTTGGC (((.(((....))).))) and report it.
54.2

Entry GCATCGCGAAAGCGGCGC ((..(((....)))..)) has what Tm?
57.3

Look at this sequence and give its reported Tm. GCGGGCCTCCGC ((((....))))
64
